Measured Ki, listed per entry.
target: rat NPFF1 receptor (Rattus norvegicus, UniProt Q9EP86); construct: expressed in transfected cells; host or cells: not given; assay: Competition binding at cloned rat NPFF1 receptor ([125I]1DMeNPFF displacement); conditions: Table 5, D-Arg- or D-Phe-containing compounds; read-out: Ki Values rNPFF1
Sequence (Q9EP86 whole entry): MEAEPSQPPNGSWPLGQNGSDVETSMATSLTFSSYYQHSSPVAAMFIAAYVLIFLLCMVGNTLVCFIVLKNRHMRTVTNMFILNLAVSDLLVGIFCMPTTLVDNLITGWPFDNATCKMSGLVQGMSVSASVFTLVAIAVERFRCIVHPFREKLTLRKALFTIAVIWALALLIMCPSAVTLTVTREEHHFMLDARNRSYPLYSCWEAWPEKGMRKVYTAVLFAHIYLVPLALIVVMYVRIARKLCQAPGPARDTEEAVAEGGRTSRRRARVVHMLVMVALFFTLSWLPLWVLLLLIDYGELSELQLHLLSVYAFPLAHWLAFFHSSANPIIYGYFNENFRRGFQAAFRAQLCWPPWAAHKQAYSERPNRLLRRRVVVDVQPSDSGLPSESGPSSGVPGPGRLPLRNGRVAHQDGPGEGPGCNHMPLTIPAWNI
ATTRIBUTE_MEASURED: Ki (µM)

>  <COMPOUND>
N=C(N)NCCC[C@@H](NS(=O)(=O)c1cccc2ccccc12)C(=O)N[C@@H](Cc1ccccc1)C(N)=O [Compound 3001B]

>  <TARGET_SYSTEM>
rat NPFF1 receptor (Rattus norvegicus, UniProt Q9EP86)

>  <UNIT_NAME>
µM

>  <VALUE>
0.046

$$$$
>  <COMPOUND>
N=C(N)NCCC[C@H](NS(=O)(=O)c1ccc2ccccc2c1)C(=O)N[C@H](Cc1ccccc1)C(N)=O [Compound 1029B]

>  <TARGET_SYSTEM>
rat NPFF1 receptor (Rattus norvegicus, UniProt Q9EP86)

>  <UNIT_NAME>
µM

>  <VALUE>
0.399

$$$$

---

Measured hNPFF2 IA, listed per entry.
molecular target: human NPFF2 receptor (Homo sapiens); construct: one of these, B089, was determined to be a full length clone with no point mutations; expressed in transfected cells; host or cells: not given; assay: Functional assay (agonist potency, intrinsic activity) at cloned human NPFF2 receptor; format: cell-based; settings: Table 6, intrinsic activity
Sequence (Q9Y5X5 103-522): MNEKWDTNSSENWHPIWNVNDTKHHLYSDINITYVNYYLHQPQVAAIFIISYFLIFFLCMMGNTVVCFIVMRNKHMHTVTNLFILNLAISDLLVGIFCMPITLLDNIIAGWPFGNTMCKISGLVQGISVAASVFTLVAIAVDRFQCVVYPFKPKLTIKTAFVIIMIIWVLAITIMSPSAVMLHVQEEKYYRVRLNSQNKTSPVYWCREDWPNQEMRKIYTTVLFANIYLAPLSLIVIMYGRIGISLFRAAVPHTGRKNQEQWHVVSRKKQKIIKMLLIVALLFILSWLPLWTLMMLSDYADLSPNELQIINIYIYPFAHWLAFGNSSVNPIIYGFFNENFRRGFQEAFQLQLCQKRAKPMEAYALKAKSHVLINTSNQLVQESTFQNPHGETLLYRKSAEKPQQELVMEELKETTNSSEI

>  <COMPOUND>
Cc1nc(NC(=N)N)nc2cc(-c3ccccc3)ccc12 [Compound 1023A]

>  <UNIT_NAME>
% NPFF

>  <hNPFF2 IA>
43

$$$$
>  <COMPOUND>
CCCCCc1ccc2nc(NC(=N)N)nc(C)c2c1 [Compound 2001A]

>  <UNIT_NAME>
% NPFF

>  <hNPFF2 IA>
84

$$$$
>  <COMPOUND>
CCCCCc1ccc2nc(NC(=N)N)cc(C)c2c1 [Compound 5002A]

>  <UNIT_NAME>
% NPFF

>  <hNPFF2 IA>
75

$$$$
>  <COMPOUND>
CCc1ccc2nc(NC(=N)N)cc(C)c2c1 [Compound 4002A]

>  <UNIT_NAME>
% NPFF

>  <hNPFF2 IA>
69

$$$$
>  <COMPOUND>
CCCCCCc1ccc2nc(NC(=N)N)cc(C)c2c1 [Compound 5003A]

>  <UNIT_NAME>
% NPFF

>  <hNPFF2 IA>
45

$$$$

---

Measured Ki, listed per entry.
biological target: rat NPFF2 receptor (Rattus norvegicus, UniProt Q9EQD2); construct: The full-length NPFF2 was amplified from rat spinal cord cDNA; expressed in transfected cells; host or cells: not given; experiment: Competition binding at cloned rat NPFF2 receptor ([125I]1DMeNPFF displacement); conditions: Table 5, D-Arg- or D-Phe-containing compounds; read-out: Ki Values rNPFF2
Sequence (Q9EQD2 whole entry): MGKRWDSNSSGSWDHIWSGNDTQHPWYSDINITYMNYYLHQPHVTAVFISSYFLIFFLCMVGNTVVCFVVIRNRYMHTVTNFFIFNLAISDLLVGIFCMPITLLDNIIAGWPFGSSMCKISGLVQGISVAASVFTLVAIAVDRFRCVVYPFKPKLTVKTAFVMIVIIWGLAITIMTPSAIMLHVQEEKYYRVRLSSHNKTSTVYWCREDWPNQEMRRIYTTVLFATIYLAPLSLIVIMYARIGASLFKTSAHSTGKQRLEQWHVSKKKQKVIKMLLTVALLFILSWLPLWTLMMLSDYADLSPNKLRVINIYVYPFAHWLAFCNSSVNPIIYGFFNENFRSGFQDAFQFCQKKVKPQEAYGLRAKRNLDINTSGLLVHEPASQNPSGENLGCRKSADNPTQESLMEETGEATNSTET

>  <COMPOUND>
N=C(N)NCCC[C@@H](NS(=O)(=O)c1cccc2ccccc12)C(=O)N[C@@H](Cc1ccccc1)C(N)=O [Compound 3001B]

>  <Ki [nM]>
2860

$$$$
>  <COMPOUND>
N=C(N)NCCC[C@H](NS(=O)(=O)c1ccc2ccccc2c1)C(=O)N[C@H](Cc1ccccc1)C(N)=O [Compound 1029B]

>  <Ki [nM]>
2690

$$$$

---

molecular target: rat NPFF1 receptor (Rattus norvegicus); construct: expressed in transfected cells; host or cells: not given; assay: Functional assay (agonist potency, intrinsic activity) at cloned rat NPFF1 receptor; format: cell-based; conditions: Table 5; read-out: Functional Activity rNPFF1 EC50
Measured EC50, listed per entry.

>  <MOLECULE>
N=C(N)NCCC[C@H](NS(=O)(=O)c1ccc2ccccc2c1)C(=O)N[C@H](Cc1ccccc1)C(N)=O [Compound 1029B]

>  <EC50>
477 nM

$$$$
>  <MOLECULE>
N=C(N)NCCC[C@@H](NS(=O)(=O)c1cccc2ccccc12)C(=O)N[C@@H](Cc1ccccc1)C(N)=O [Compound 3001B]

>  <EC50>
> 10000 nM

$$$$

---

Measured Functional Activity rNPFF2 I.A. %, listed per entry.
biological target: rat NPFF2 receptor (Rattus norvegicus); construct: The full-length NPFF2 was amplified from rat spinal cord cDNA; expressed in transfected cells; host or cells: not given; assay: Functional assay (agonist potency, intrinsic activity) at cloned rat NPFF2 receptor; type: cell-based; conditions: Table 4; percent of maximum response elicited by neuropeptide FF

>  <MOLECULE>
COc1ccc(S(=O)(=O)N[C@@H](CCCNC(=N)N)C(=O)N[C@@H](Cc2ccccc2)C(N)=O)cc1OC [Compound 1015B]

>  <Functional Activity rNPFF2 I.A. %>
74%

$$$$
>  <MOLECULE>
N=C(N)NCCC[C@H](NS(=O)(=O)c1ccc(Cl)cc1Cl)C(=O)N[C@@H](Cc1ccccc1)C(N)=O [Compound 1010B]

>  <Functional Activity rNPFF2 I.A. %>
28%

$$$$
>  <MOLECULE>
N=C(N)NCCC[C@H](NS(=O)(=O)c1ccc(Cl)c(Cl)c1)C(=O)N[C@@H](Cc1ccccc1)C(N)=O [Compound 1022B]

>  <Functional Activity rNPFF2 I.A. %>
34%

$$$$
>  <MOLECULE>
COc1ccc(Br)cc1S(=O)(=O)N[C@@H](CCCNC(=N)N)C(=O)N[C@@H](Cc1ccccc1)C(N)=O [Compound 1025B]

>  <Functional Activity rNPFF2 I.A. %>
33%

$$$$
>  <MOLECULE>
N=C(N)NCCC[C@H](NS(=O)(=O)c1c(F)cccc1F)C(=O)N[C@@H](Cc1ccccc1)C(N)=O [Compound 1004B]

>  <Functional Activity rNPFF2 I.A. %>
43%

$$$$
>  <MOLECULE>
N=C(N)NCCC[C@H](NS(=O)(=O)c1ccc(F)cc1)C(=O)N[C@@H](Cc1ccccc1)C(N)=O [Compound 1005B]

>  <Functional Activity rNPFF2 I.A. %>
46%

$$$$
>  <MOLECULE>
N=C(N)NCCC[C@H](NS(=O)(=O)c1ccc([N+](=O)[O-])cc1[N+](=O)[O-])C(=O)N[C@@H](Cc1ccccc1)C(N)=O [Compound 2002B]

>  <Functional Activity rNPFF2 I.A. %>
5%

$$$$

---

molecular target: rat NPFF2 receptor (Rattus norvegicus, UniProt Q9EQD2); construct: The full-length NPFF2 was amplified from rat spinal cord cDNA; expressed in transfected cells; host or cells: not given; experiment: Functional assay (agonist potency, intrinsic activity) at cloned rat NPFF2 receptor; type: cell-based; details: Table 7, intrinsic activity
Classification field: Satisfied = rNPFF2 IA at or over 40 % NPFF; Not satisfied = rNPFF2 IA under 40 % NPFF.

>  <COMPOUND>
Cc1cc2nc(NC(=N)N)nc(C)c2cc1C [Compound 1015A]

>  <TARGET_SYSTEM>
rat NPFF2 receptor (Rattus norvegicus, UniProt Q9EQD2)

>  <CLASSIFICATION>
Satisfied

$$$$
>  <COMPOUND>
Cc1ccc2nc(NC(=N)N)cc(C)c2c1 [Compound 4001A, N-(4,6-dimethyl-2-quinolinyl)guanidine]

>  <TARGET_SYSTEM>
rat NPFF2 receptor (Rattus norvegicus, UniProt Q9EQD2)

>  <CLASSIFICATION>
Satisfied

$$$$
>  <COMPOUND>
Cc1ccc(Oc2ccc3nc(NC(=N)N)nc(C)c3c2)cc1 [Compound 1033A]

>  <TARGET_SYSTEM>
rat NPFF2 receptor (Rattus norvegicus, UniProt Q9EQD2)

>  <CLASSIFICATION>
Satisfied

$$$$
>  <COMPOUND>
Cc1cc(NC(=N)N)nc2cc(F)ccc12 [Compound 4007A]

>  <TARGET_SYSTEM>
rat NPFF2 receptor (Rattus norvegicus, UniProt Q9EQD2)

>  <CLASSIFICATION>
Not satisfied

$$$$
>  <COMPOUND>
Cc1nc(NC(=N)N)nc2ccc(Cc3ccccc3)cc12 [Compound 2003A]

>  <TARGET_SYSTEM>
rat NPFF2 receptor (Rattus norvegicus, UniProt Q9EQD2)

>  <CLASSIFICATION>
Satisfied

$$$$
>  <COMPOUND>
Cc1ccc2nc(NC(=N)N)nc(C)c2c1 [Compound 1002A, N-(4,6-dimethyl-2-quinazolinyl)guanidine]

>  <TARGET_SYSTEM>
rat NPFF2 receptor (Rattus norvegicus, UniProt Q9EQD2)

>  <CLASSIFICATION>
Not satisfied

$$$$
>  <COMPOUND>
CCCCOc1ccc2nc(NC(=N)N)nc(C)c2c1 [Compound 1012A]

>  <TARGET_SYSTEM>
rat NPFF2 receptor (Rattus norvegicus, UniProt Q9EQD2)

>  <CLASSIFICATION>
Satisfied

$$$$
>  <COMPOUND>
Cc1nc(NC(=N)N)nc2cc(-c3ccccc3)ccc12 [Compound 1023A]

>  <TARGET_SYSTEM>
rat NPFF2 receptor (Rattus norvegicus, UniProt Q9EQD2)

>  <CLASSIFICATION>
Not satisfied

$$$$
>  <COMPOUND>
Cc1nc(NC(=N)N)nc2cc(OC(C)C)ccc12 [Compound 1025A]

>  <TARGET_SYSTEM>
rat NPFF2 receptor (Rattus norvegicus, UniProt Q9EQD2)

>  <CLASSIFICATION>
Not satisfied

$$$$
>  <COMPOUND>
CCCCCCCCc1ccc2nc(NC(=N)N)nc(C)c2c1 [Compound 1009A]

>  <TARGET_SYSTEM>
rat NPFF2 receptor (Rattus norvegicus, UniProt Q9EQD2)

>  <CLASSIFICATION>
Not satisfied

$$$$
>  <COMPOUND>
Cc1cc(NC(=N)N)nc2ccc(-c3ccccc3)cc12 [Compound 4003A]

>  <TARGET_SYSTEM>
rat NPFF2 receptor (Rattus norvegicus, UniProt Q9EQD2)

>  <CLASSIFICATION>
Not satisfied

$$$$
>  <COMPOUND>
Cc1nc(NC(=N)N)nc2cc(C(C)O)ccc12 (centres unmarked) [Compound 1035A]

>  <TARGET_SYSTEM>
rat NPFF2 receptor (Rattus norvegicus, UniProt Q9EQD2)

>  <CLASSIFICATION>
Satisfied

$$$$
>  <COMPOUND>
COc1cc2c(C)nc(NC(=N)N)nc2cc1C [Compound 1016A]

>  <TARGET_SYSTEM>
rat NPFF2 receptor (Rattus norvegicus, UniProt Q9EQD2)

>  <CLASSIFICATION>
Satisfied

$$$$
>  <COMPOUND>
Cc1nc(NC(=N)N)nc2cc3ccoc3cc12 [Compound 1039A]

>  <TARGET_SYSTEM>
rat NPFF2 receptor (Rattus norvegicus, UniProt Q9EQD2)

>  <CLASSIFICATION>
Satisfied

$$$$
>  <COMPOUND>
Cc1cc2nc(NC(=N)N)nc(C)c2cc1O [Compound 1017A]

>  <TARGET_SYSTEM>
rat NPFF2 receptor (Rattus norvegicus, UniProt Q9EQD2)

>  <CLASSIFICATION>
Not satisfied

$$$$
>  <COMPOUND>
CCc1ccc2nc(NC(=N)N)nc(C)c2c1 [Compound 1003A]

>  <TARGET_SYSTEM>
rat NPFF2 receptor (Rattus norvegicus, UniProt Q9EQD2)

>  <CLASSIFICATION>
Satisfied

$$$$
>  <COMPOUND>
Cc1nc(NC(=N)N)nc2cc3c(cc12)C=CCC3 [Compound 1037A]

>  <TARGET_SYSTEM>
rat NPFF2 receptor (Rattus norvegicus, UniProt Q9EQD2)

>  <CLASSIFICATION>
Satisfied

$$$$
>  <COMPOUND>
CCCCCCc1ccc2nc(NC(=N)N)nc(C)c2c1 [Compound 2005A]

>  <TARGET_SYSTEM>
rat NPFF2 receptor (Rattus norvegicus, UniProt Q9EQD2)

>  <CLASSIFICATION>
Satisfied

$$$$
>  <COMPOUND>
CCc1nc(NC(=N)N)nc2ccc(C)cc12 [Compound 1027A]

>  <TARGET_SYSTEM>
rat NPFF2 receptor (Rattus norvegicus, UniProt Q9EQD2)

>  <CLASSIFICATION>
Not satisfied

$$$$
>  <COMPOUND>
Cc1nc(NC(=N)N)nc2ccc(OC(F)(F)F)cc12 [Compound 1030A]

>  <TARGET_SYSTEM>
rat NPFF2 receptor (Rattus norvegicus, UniProt Q9EQD2)

>  <CLASSIFICATION>
Satisfied

$$$$
